test system: OVCAR-8; assay: NCI tumour cell line growth inhibition, 48 h
Calls of active or inactive are those of the source. Rule as the data show it: active = GI50 up to about 1.1 µM and inactive = higher.
recorded_endpoint: GI50

molecule: C=C(CCOC)CCC1CCCCC(=C)C1=O (stereo unspecified)
value_measured: > 100 µM (inactive)

molecule: CC(=O)/C(=C\n1c(=S)[nH]c2ccc([N+](=O)[O-])cc21)C(=O)Nc1ccccc1C
value_measured: > 100 µM (inactive)

molecule: Cc1ccc(S(=O)(=O)NC(=O)NC(CCCCN)C(=O)O)cc1 (stereo unspecified)
value_measured: > 100 µM (inactive)

molecule: CCOC(=O)/C=C(/C=C\COC1CCCCO1)c1ccccc1 (stereo unspecified)
value_measured: 23.1 µM (inactive)

molecule: O=c1[nH]nc(Nc2ccccc2)c2nnn(C3CCCCC3)c12
value_measured: > 100 µM (inactive)

molecule: C=CCC1C(=O)CC2(C)C(CC=C)C(=O)CC12C (stereo unspecified)
value_measured: > 100 µM (inactive)

* * *

system: Hs-578T; assay: NCI tumour cell line growth inhibition, 48 h
Calls of active or inactive are those of the source. Rule as the data show it: active = GI50 up to about 1.1 µM and inactive = higher.
The reader will find reported GI50 values listed item by item below.
recorded_endpoint: GI50

molecule: Cc1ccc(-c2nc(C)c(C(=O)Nc3ccc(Cl)cc3)s2)cc1
tested_system: Hs-578T
value_measured: 21.8 µM (inactive)
--
molecule: O=C(NCc1ccccc1)c1cc2ccccc2o/c1=N\c1cccc(C(F)(F)F)c1
tested_system: Hs-578T
value_measured: > 100 µM (inactive)
--
molecule: COc1ccc(P2(=S)SP(=S)(c3ccc(Cl)cc3)S2)cc1 (stereo unspecified)
tested_system: Hs-578T
value_measured: > 100 µM (inactive)
--
molecule: CCOC(=O)C(NC(=O)c1ccccc1)(Nc1cc(C)on1)C(F)(F)F (stereo unspecified)
tested_system: Hs-578T
value_measured: > 100 µM (inactive)
--
molecule: O=C(OCc1ccccc1)N1c2cc([N+](=O)[O-])ccc2C(=O)N2CCC[C@H]2C1O (stereo partly specified)
tested_system: Hs-578T
value_measured: > 100 µM (inactive)
--
molecule: C=C(CCOC)CCC1CCCCC(=C)C1=O (stereo unspecified)
tested_system: Hs-578T
value_measured: > 100 µM (inactive)

* * *

system: U-251; assay: NCI tumour cell line growth inhibition, 48 h
Activity calls are given as the source filed them. Rule as the data show it: active = GI50 up to about 1.1 µM and inactive = higher.

compound: O=[N+]([O-])c1cc2ccc(N(CCO)CCO)nc2nc1N(CCO)CCO
GI50: > 100 µM (inactive)

compound: CC(C)CCCC(=O)CCCCCCC(=O)CCN(O)C(=O)C(N)CO (stereo unspecified)
GI50: 21.8 µM (inactive)

compound: COC(=O)/C=C/c1cc2c(cc1-c1c(C(=O)O)cc(OC)c(OC)c1OC)OCO2
GI50: > 10 µM (inactive)

compound: CC1(O)C=CC2CCC1C2O (stereo unspecified)
GI50: > 100 µM (inactive)

compound: O1C2C1C1OC1C1OC1C1OC21 (stereo unspecified)
GI50: > 100 µM (inactive)

compound: COC(=O)CCC(=O)CC(=O)C(=O)Nc1ccc(F)cc1
GI50: > 100 µM (inactive)

* * *

test system: NCI-H522; assay: NCI tumour cell line growth inhibition, 48 h
Active and inactive are the calls of the source. Rule as the data show it: active = GI50 up to about 1.1 µM and inactive = higher.

compound: Cc1nc2nn(C)cc2c(=O)n1/N=C/c1ccccc1
GI50: > 100 µM (inactive)

compound: NC(=O)c1cnc2sc3ccccc3n2c1=O
GI50: 74 µM (inactive)

compound: CC1(O)C=CC2CCC1C2O (stereo not drawn)
GI50: > 100 µM (inactive)

compound: C[N+](C)(C)c1ncnc2c1ncn2C1CCCCO1 (stereo not drawn)
GI50: > 100 µM (inactive)

compound: CCOC(=O)NC(NCC(O)c1ccccc1)(C(F)(F)F)C(F)(F)F (stereo not drawn)
GI50: > 100 µM (inactive)

compound: CCN(CC)Cc1cc(Nc2ccnc3ccc4nn(C)nc4c23)ccc1O
GI50: 9.29 µM (inactive)

compound: O=C(O)/C=N/NC(=S)NC1CCCCC1
GI50: > 100 µM (inactive)

compound: O=C(O)c1cc2c3ccccc3nc-2c[nH]1
GI50: > 100 µM (inactive)

compound: CSC1=N/C(=C\c2ccc(C)cc2)C(=O)N1CN1CCOCC1
GI50: 97.5 µM (inactive)

compound: CC(=O)OCC1OC(c2c(OC(C)=O)cc(C)c3c(=O)cc(/C(C(C)=O)=C(\C)O)oc23)C(OC(C)=O)C(OC(C)=O)C1OC(C)=O (stereo not drawn)
GI50: > 100 µM (inactive)

compound: COc1ccc(Cc2c(N)[nH]c(=O)n(C)c2=O)cc1
GI50: > 100 µM (inactive)

compound: COc1cc(S(=O)(=O)Nc2nc(-c3ccc(N4C(=O)/C(=C/c5ccccc5)N=C4c4ccccc4)cc3)cs2)ccc1Cl
GI50: 35.3 µM (inactive)

compound: O=S(=O)(CC#CCS(=O)(=O)c1ccccc1)c1ccccc1
GI50: 0.659 µM (active)

* * *

The reader will find reported GI50 values listed item by item below.
test system: RXF 393; assay: NCI tumour cell line growth inhibition, 48 h
Calls of active or inactive are those of the source. Cut-off read from the data, not from the text of the source: active = GI50 up to about 1.1 µM and inactive = higher.

compound: CCOC(=O)c1csc(NC(=O)CCN2CCOCC2)n1
GI50: 75.5 µM (inactive)

compound: CCN1C(C)=NC2C(=O)c3ccccc3C(=O)C21 (stereo not given)
GI50: > 100 µM (inactive)

compound: O=C(Nc1ccccc1-c1nc2ccccc2[nH]c1=O)c1ccccc1
GI50: 21.2 µM (inactive)

compound: CC(N1CCOCC1)C(O)(c1ccccc1)c1ccccn1 (stereo not given)
GI50: > 100 µM (inactive)

compound: CCCCCCN(CCCCCC)C1=CC(=O)C(=O)c2ccccc21
GI50: 25.1 µM (inactive)

* * *

tested on: MDA-N; assay: NCI tumour cell line growth inhibition, 48 h
Calls of active or inactive are those of the source. Rule as the data show it: active = GI50 up to about 1.1 µM and inactive = higher.
Outcome codes: YES = active, NO = inactive

molecule: CCOC(=O)/C(=N\OC)C(O)C(F)(F)F (stereo not given)
tested_system: MDA-N
group_label: NO

molecule: CNC(=O)N(CCC#N)CCCN(C(=O)NC)c1ccccc1
tested_system: MDA-N
group_label: NO

molecule: COc1cc(C2C3=C(COC3=O)Oc3cc4c(cc32)OCO4)cc(OC)c1OC (stereo not given)
tested_system: MDA-N
group_label: YES

molecule: CC(N1CCOCC1)C(O)(c1ccccc1)c1ccccn1 (stereo not given)
tested_system: MDA-N
group_label: NO

molecule: COC(=O)C1=C(O)C(C(=O)OC)[C@]2(O)[C@H](C(=O)OC)[C@H]1C[C@@H](c1ccccc1OC)[C@H]2C(=O)OC (stereo not given in full)
tested_system: MDA-N
group_label: NO

* * *

test system: EKVX; assay: NCI tumour cell line growth inhibition, 48 h
The source made the active and inactive calls. No stated cut-off is given here; in the data, active = GI50 up to about 1.1 µM and inactive = higher.
The reader will find reported GI50 values listed item by item below.

compound: Cc1cc(C)nc(NS(=O)(=O)c2ccc(NC(=O)c3ccc4nc5ccccc5c(Nc5ccc(S(=O)(=O)N=C(N)N)cc5)c4c3)cc2)n1
tested_system: EKVX
GI50: > 100 µM (inactive)

compound: COc1cc2c(c(OC)c1OC)-c1ccc(SC)c(=O)cc1[C@@H](O)CC2
tested_system: EKVX
GI50: 0.000748 µM (active)

compound: Cc1ccc(NC(=O)CC/C(CC(=O)C(C)(C)C)=N/NC(=O)C(N)=O)cc1C
tested_system: EKVX
GI50: > 100 µM (inactive)

compound: CCC1=CC2Cc3nc4cc(Cl)ccc4c(N)c3C(C1)C2 (stereo not given)
tested_system: EKVX
GI50: 3.18 µM (inactive)

compound: CC(C)COC(=O)OC(=O)c1ccc(N(C)Cc2cnc3nc(N)nc(N)c3n2)cc1
tested_system: EKVX
GI50: > 52.7 µM (inactive)

compound: CN(C)c1ccc(/C=N\N2C(=O)c3ccccc3C2=O)cc1
tested_system: EKVX
GI50: > 100 µM (inactive)

compound: CSc1ccc2c(cc1=O)[C@@H](NC(=O)c1ccc(Cl)cc1)CCc1cc(O)c(O)c(O)c1-2
tested_system: EKVX
GI50: 69.2 µM (inactive)

compound: Cc1ccc(CSC(=N)Nc2ccccc2)cc1C
tested_system: EKVX
GI50: 26.4 µM (inactive)

compound: O=c1[nH]nc(Cc2ccccc2)n1Nc1ccccc1
tested_system: EKVX
GI50: > 100 µM (inactive)

compound: CCc1ccccc1NC(=O)/C=C/c1ccccc1
tested_system: EKVX
GI50: > 100 µM (inactive)

* * *

test system: MOLT-4; assay: NCI tumour cell line growth inhibition, 48 h
The source made the active and inactive calls. Rule as the data show it: active = GI50 up to about 1.1 µM and inactive = higher.
Outcome codes: 1 (yes) = active, 0 (no) = inactive

molecule: CC1(O)C=CC2CCC1C2O (configuration not stated)
group_label: 0 (no)

molecule: O=[N+]([O-])/C(C(Cl)=C(Cl)Cl)=C(/Cl)Sc1ccccc1
group_label: 1 (yes)

molecule: COc1cc(S(=O)(=O)Nc2nc(-c3ccc(N4C(=O)/C(=C/c5ccccc5)N=C4c4ccccc4)cc3)cs2)ccc1Cl
group_label: 0 (no)

molecule: Cc1c(O)c(=O)ccn1C1OC(CO)C(O)C1O (configuration not stated)
group_label: 0 (no)

molecule: CC1=C(c2ccccc2)C(c2ccccc2)=C(c2ccccc2)C2(c3ccccc3)C(=O)C(C)CN12 (configuration not stated)
group_label: 0 (no)

molecule: C=C1CC2CC[C@@]34C[C@@H]5O[C@@H]6C(O[C@H]7CC[C@H](CC(=O)OC8[C@@H](C)C9OC%10C[C@]%11(C[C@@H]%12O[C@@]%13(C[C@@H](C)[C@@H]%12O%11)C[C@H](C)[C@@H]%11OC%12CC(C(O)CO)OC%12C[C@@H]%11O%13)OC%10CC9O[C@H]8C[C@H]8O[C@@H](CC[C@@H]1O2)C[C@@H](C)C8=C)O[C@@H]7[C@@H]6O3)C5O4 (some centres not stated)
group_label: 1 (yes)

molecule: CCOC(=O)Nc1ccc(S(=O)(=O)Nn2cnnc2)cc1
group_label: 0 (no)
